Listed below: Activity values for each entry.
System: Bacteria
assayProcedure: Inhibition of recombinant bacterial IMP1 expressed in Escherichia coli BL21 (DE3) cells using FC4-FC5 as substrate assessed as residual activity at 100 uM by fluorescence-based assay
Numbers only here, please. The scale is %.

Example entries and their recorded answers appear below.
> print(dat)
                                   compound  unit  value
1            CC1=N/C(=C\c2ccc(F)cc2)C(=O)O1     %    100
2  O=P(O)(O)C(S)c1ccc(Br)cc1F (centres undefined)     %    100
3                 O=C(O)/C(O)=C/c1ccc(F)cc1     %    100

# input for lookup
Fill in the blank: the reported Activity of O=P(O)(O)C(O)c1ccc(Br)cc1F (centres undefined) is ____. 100
